// values below are reported inhibition at 250 µM
Molecular target: carnitine acetyltransferase (CAT) (Columba livia, UniProt P52826)
Construct: an enzyme isolated from pigeon breast muscle (Sigma Aldrich) was used in the form of an ammonium sulfate suspension; tissue Sigma-Aldrich; host or cells: pigeon breast muscle
Sequence (P52826 31-627): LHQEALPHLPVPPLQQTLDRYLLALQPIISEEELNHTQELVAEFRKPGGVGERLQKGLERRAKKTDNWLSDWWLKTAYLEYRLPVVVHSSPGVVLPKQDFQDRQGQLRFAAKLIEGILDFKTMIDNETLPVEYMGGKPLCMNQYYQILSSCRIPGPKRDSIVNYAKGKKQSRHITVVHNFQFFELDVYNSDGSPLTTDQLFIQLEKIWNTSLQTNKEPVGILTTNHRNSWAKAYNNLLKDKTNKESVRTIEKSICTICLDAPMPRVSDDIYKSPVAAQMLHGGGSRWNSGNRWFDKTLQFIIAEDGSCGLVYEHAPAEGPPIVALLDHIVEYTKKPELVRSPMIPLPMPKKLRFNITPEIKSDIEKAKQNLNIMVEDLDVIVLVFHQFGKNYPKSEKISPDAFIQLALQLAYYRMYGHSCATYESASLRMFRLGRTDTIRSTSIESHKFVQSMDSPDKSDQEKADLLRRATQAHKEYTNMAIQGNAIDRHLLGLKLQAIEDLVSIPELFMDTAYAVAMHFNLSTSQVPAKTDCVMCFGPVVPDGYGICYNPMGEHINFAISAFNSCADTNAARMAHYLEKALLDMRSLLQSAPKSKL
Experiment: Initial screening of CAT inhibition, spectrophotometric kinetic method with Ellman's reagent
Type: biochemical
Settings: read-out: CAT inhibition (%), inhibitor 250 μM; read in first minute of reaction
Unit % implied. Number only.

See these solved cases before continuing.
{"columns": ["compound", "assay_metric", "recorded_measurement"],
 "data": [
  ["COc1ccc(OC)c(C2OC(=O)c3cc(OC)c(OC)cc3C2C(=O)O)c1 (stereo not drawn) [cis-11]", "inhibition at 250 µM", 6],
  ["COc1cc2c(cc1OC)C(C(=O)O)C(c1cccc(OC)c1OC)OC2=O (racemic) [cis-10]", "inhibition at 250 µM", 2],
  ["CCCCCCCCCCC1OC(=O)c2cc(OC)c(OC)cc2C1C(=O)O (racemic) [cis-8]", "inhibition at 250 µM", 71],
  ["CCCCCCCCCC1OC(=O)c2cc(OC)c(OC)cc2C1C(=O)O (racemic) [cis-7]", "inhibition at 250 µM", 43],
  ["CCCCCCCCCCC1OC(=O)c2ccccc2C1C(=O)O (racemic) [cis-4]", "inhibition at 250 µM", 96]
]}

## Input Determine its reported inhibition at 250 µM: CCCCCCCC1OC(=O)c2ccccc2C1C(=O)O (racemic) [cis-2]
## Output 10

## Input Determine its reported inhibition at 250 µM: CCCCCCCCCC1OC(=O)c2ccccc2C1C(=O)O (racemic) [cis-3]
## Output 28

====

// values below are reported inhibition at 1000 µM
target: carnitine acetyltransferase (CAT) (Columba livia, UniProt P52826); construct: an enzyme isolated from pigeon breast muscle (Sigma Aldrich) was used in the form of an ammonium sulfate suspension; tissue Sigma-Aldrich; host or cells: pigeon breast muscle; experiment: Initial screening of CAT inhibition, spectrophotometric kinetic method with Ellman's reagent; format: biochemical; conditions: read-out: CAT inhibition (%), inhibitor 1000 μM; read in first minute of reaction
Unit % implied. Number only.

{"columns": ["molecule", "measure_unit", "inhibition at 1000 µM"],
 "data": [
  ["CCCCCCCCCCC1OC(=O)c2ccccc2C1C(=O)O (racemic) [cis-4]", "%", 97],
  ["CCCCCCCCCC1OC(=O)c2cc(OC)c(OC)cc2C1C(=O)O (racemic) [cis-7]", "%", 85]
]}

## Input Determine its reported inhibition at 1000 µM: CCCCCCCCCCC1OC(=O)c2cc(OC)c(OC)cc2C1C(=O)O (racemic) [cis-8]
## Output 85

## Input Determine its reported inhibition at 1000 µM: CCCCCCCCCC1OC(=O)c2ccccc2C1C(=O)O (racemic) [cis-3]
## Output 97

## Input Determine its reported inhibition at 1000 µM: COc1ccc(OC)c(C2OC(=O)c3cc(OC)c(OC)cc3C2C(=O)O)c1 (stereo not drawn) [cis-11]
## Output 22

## Input Determine its reported inhibition at 1000 µM: CCCCCCCC1OC(=O)c2cc(OC)c(OC)cc2C1C(=O)O (racemic) [cis-6]
## Output 27

## Input Determine its reported inhibition at 1000 µM: COc1cc2c(cc1OC)C(C(=O)O)C(c1cccc(OC)c1OC)OC2=O (racemic) [cis-10]
## Output 12

## Input Determine its reported inhibition at 1000 µM: CCCCCCCC1OC(=O)c2ccccc2C1C(=O)O (racemic) [cis-2]
## Output 16

Origin of the recorded values: paper PMC12348882
